TARGET SYSTEM: αvβ1 integrin (αvβ1 expressing CHO cells) (Homo sapiens (Human), UniProt P05556+P06756)
Sequence (P06756 31-889): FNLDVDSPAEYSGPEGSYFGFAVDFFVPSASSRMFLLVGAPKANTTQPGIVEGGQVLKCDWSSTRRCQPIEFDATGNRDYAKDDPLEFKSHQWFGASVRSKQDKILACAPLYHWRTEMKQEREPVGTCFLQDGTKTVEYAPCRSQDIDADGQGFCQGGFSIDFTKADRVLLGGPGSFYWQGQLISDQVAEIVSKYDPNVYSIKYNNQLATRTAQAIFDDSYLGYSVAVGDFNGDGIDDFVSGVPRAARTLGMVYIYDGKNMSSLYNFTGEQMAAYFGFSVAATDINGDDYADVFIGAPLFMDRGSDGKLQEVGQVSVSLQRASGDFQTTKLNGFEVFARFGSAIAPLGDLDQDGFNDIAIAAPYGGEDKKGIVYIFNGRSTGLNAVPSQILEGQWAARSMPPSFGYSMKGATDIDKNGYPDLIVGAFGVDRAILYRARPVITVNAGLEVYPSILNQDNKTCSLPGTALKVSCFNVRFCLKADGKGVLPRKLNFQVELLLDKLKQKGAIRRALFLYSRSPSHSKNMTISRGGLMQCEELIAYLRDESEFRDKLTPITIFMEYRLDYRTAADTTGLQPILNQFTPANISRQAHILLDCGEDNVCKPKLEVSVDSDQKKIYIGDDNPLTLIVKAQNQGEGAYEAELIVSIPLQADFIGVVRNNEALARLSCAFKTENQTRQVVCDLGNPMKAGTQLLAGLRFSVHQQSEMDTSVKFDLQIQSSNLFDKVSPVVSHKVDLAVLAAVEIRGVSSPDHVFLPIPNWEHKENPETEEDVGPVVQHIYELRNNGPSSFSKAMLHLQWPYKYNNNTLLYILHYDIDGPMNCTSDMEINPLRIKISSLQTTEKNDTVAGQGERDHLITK
Sequence (P06756 891-1048 partner): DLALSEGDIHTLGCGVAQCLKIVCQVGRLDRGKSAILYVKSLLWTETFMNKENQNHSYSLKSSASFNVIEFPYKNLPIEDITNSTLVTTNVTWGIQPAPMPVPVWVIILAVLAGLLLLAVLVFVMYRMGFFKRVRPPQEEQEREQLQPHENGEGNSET
Sequence (P05556 21-798): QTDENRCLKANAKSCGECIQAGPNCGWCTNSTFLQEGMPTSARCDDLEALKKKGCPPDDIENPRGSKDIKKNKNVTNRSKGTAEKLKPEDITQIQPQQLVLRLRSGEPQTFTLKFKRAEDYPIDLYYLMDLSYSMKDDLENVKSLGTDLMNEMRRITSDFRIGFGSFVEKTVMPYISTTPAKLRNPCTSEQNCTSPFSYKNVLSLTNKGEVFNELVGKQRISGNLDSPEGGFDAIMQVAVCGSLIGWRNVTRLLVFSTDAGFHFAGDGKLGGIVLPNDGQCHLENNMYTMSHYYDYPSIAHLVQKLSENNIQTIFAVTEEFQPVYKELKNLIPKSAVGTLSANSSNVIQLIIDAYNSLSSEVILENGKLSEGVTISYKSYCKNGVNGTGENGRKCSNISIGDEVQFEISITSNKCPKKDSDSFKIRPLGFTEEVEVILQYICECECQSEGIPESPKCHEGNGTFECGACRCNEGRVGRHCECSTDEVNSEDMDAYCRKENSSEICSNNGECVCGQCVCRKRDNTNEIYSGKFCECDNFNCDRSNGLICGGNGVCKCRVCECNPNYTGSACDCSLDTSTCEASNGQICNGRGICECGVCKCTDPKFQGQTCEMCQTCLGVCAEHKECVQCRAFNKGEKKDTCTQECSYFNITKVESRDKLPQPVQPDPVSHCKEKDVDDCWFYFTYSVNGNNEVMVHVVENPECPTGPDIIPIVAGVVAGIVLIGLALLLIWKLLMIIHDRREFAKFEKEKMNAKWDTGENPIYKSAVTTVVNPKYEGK
ASSAY REMARKS: Cell adhesion assay: inhibition of αvβ1 expressing CHO cells attaching to TGFβ1LAP
Type: cell-based
ASSAY SETUP: 1 h at 37° C., crystal violet absorbance 595 nm, read-out: αvβ1 Inhibition IC50 (nM)-range
Item-by-item account of IC50

# annotated cases, reported IC50 shown
COMPOUND	RESULT
Cn1ncc2cccc(C(=O)N[C@@H](CCCCCCCc3ccc4c(n3)NCCC4)C(=O)O)c21 [Compound 114]	< 50 nM
Cn1ncc2cc(C(=O)N[C@@H](Cc3ccc(OCCCc4ccc5c(n4)NCCC5)cc3)C(=O)O)ccc21 [Example 43]	< 50 nM
O=C(NC(CN1CC(OCCCc2ccc3c(n2)NCCC3)C1)C(=O)O)c1c(Cl)cccc1Cl (stereo not drawn) [Compound 74]	250 to 1000 nM

Give its IC50 value. Item: O=C(NC(Cc1ccc(COC2CCC(Nc3ccccn3)CC2)cc1)C(=O)O)c1c(Cl)cccc1Cl (stereo not drawn) [Example 31] 50 to 250 nM

Give its IC50 value. Item: Cc1nccc(C(=O)N[C@@H](Cc2ccc(OCCCc3ccc4c(n3)NCCC4)cc2)C(=O)O)n1 [Example 8] 50 to 250 nM

Give its IC50 value. Item: O=C(NC(Cc1ccc(O[C@H]2CC[C@@H](Nc3ccccn3)CC2)cc1)C(=O)O)c1c(Cl)cccc1Cl (stereo partly drawn) [Example 38] < 50 nM

Give its IC50 value. Item: N#Cc1ccc(C(=O)N[C@@H](CCCCCCCc2ccc3c(n2)NCCC3)C(=O)O)c(F)c1 [Compound 101] < 50 nM

Give its IC50 value. Item: CN1CC(NCCCCOc2ccc(C[C@H](NC(=O)c3c(Cl)cccc3Cl)C(=O)O)cc2)=NCC1=O [Example 58] > 1000 nM

Give its IC50 value. Item: Cn1cc(-c2ccc(C(=O)N[C@@H](CCCCCCCc3ccc4c(n3)NCCC4)C(=O)O)cc2)cn1 [Compound 113] 50 to 250 nM

Give its IC50 value. Item: CN1C(=O)CN=C1NCCCCOc1ccc(C[C@H](NC(=O)c2c(Cl)cccc2Cl)C(=O)O)cc1 [Example 57] > 1000 nM

Give its IC50 value. Item: O=C(N[C@@H](Cc1ccc(OCCCc2ccc3c(n2)NCCC3)cc1)C(=O)O)c1cnc(C(F)F)cn1 [Example 3] < 50 nM

meta.source: patent US20230365556A1
